system: Calu-3; assay: cell viability relative to DMSO; higher = less toxic; settings: 72 h; 1 nM
VALUE_KIND: cell viability (%)
Reply numerically in %, unit not repeated.

| COMPOUND | UNIT_DESCRIPTOR | cell viability |
| --- | --- | --- |
| C=CC[N@@+]12CC[C@@]34c5ccccc5N5/C=C6/[C@H]7C[C@H]8[C@@]9(CC[N@@+]8(CC=C)C/C7=C/CO)c7ccccc7N(/C=C(/[C@@H](C[C@@H]31)/C(=C\CO)C2)[C@H]54)[C@@H]69 [alcuronium] | % | 97.8 |
| CC(C)Oc1ccc(-c2nc(-c3cccc4c3CC[C@H]4NCCC(=O)O)no2)cc1C#N [RP-001] | % | 95.9 |
| CCOC(=O)O[C@]1(C(=O)OCCl)CC[C@H]2[C@@H]3CCC4=CC(=O)C=C[C@]4(C)[C@H]3[C@@H](O)C[C@@]21C [loteprednol] | % | 98.8 |
| O=C(OCCOCCO)c1ccccc1Nc1cccc(C(F)(F)F)c1 [etofenamate] | % | 108 |
| N#C[C@@H]1C[C@@H]2C[C@@H]2N1C(=O)[C@@H](N)C12CC3CC(CC(O)(C3)C1)C2 | % | 98.2 |
| O[C@H]1CC[C@H](Nc2nc(-c3ccccc3)nc3[nH]ccc23)CC1 [SLV-320] | % | 99.5 |
| N=C(N)NCc1cccc(I)c1 [iobenguane] | % | 110 |

In the following, a different compound is considered.
Lab note: measured cell viability of O=C(O)C1CSCN1 (stereo not drawn) [timonacic] was 115

###

test system: Calu-3; experiment: cell viability relative to DMSO; higher = less toxic; details: 72 h; 100 nM
VALUE_KIND: cell viability (%)
Reply numerically in %, unit not repeated.

Use these answered entries as a reference point.
| MOL_SMILES | ASSAY_TARGET | UNIT_DESCRIPTOR | cell viability |
| --- | --- | --- | --- |
| CCOC(=O)O[C@]1(C(=O)OCCl)CC[C@H]2[C@@H]3CCC4=CC(=O)C=C[C@]4(C)[C@H]3[C@@H](O)C[C@@]21C | Calu-3 | % | 103 |
| Fc1ccc(-c2cncc(CN3CCN(c4cccc5c4OCCO5)CC3)c2)cc1 | Calu-3 | % | 93.8 |
| O=P(O)(O)CN(CCN(CP(=O)(O)O)CP(=O)(O)O)CP(=O)(O)O | Calu-3 | % | 96 |
| CC(C)(Sc1ccncc1-c1ccc(C#N)c2ccccc12)C(=O)O | Calu-3 | % | 90.9 |
| O=C(O)C[C@H](O)C[C@H](O)/C=C/c1c(C2CC2)nc2ccccc2c1-c1ccc(F)cc1 | Calu-3 | % | 99.2 |
| COc1ccc(Br)cc1S(=O)(=O)NC(=O)/C=C/c1ccccc1Cc1ccc2ccccc2c1 | Calu-3 | % | 88 |
| Cc1c(N)c(=O)n(-c2ccccc2)n1C | Calu-3 | % | 98.6 |

In the following, a different molecule is considered.
Lab note: measured cell viability of `Cn1ncc(Cl)c1-c1cc(C(=O)N[C@H](CN)Cc2ccc(F)c(F)c2)oc1Cl` was 78.4

###

compounds and their reported cell viability
system: Vero E6; experiment: cell viability relative to DMSO; higher = less toxic; settings: 72 h; 1000 nM
Reply numerically in %, unit not repeated.

| COMPOUND | UNIT_DESCRIPTOR | READOUT_NUMBER |
| --- | --- | --- |
| Cc1c(NC(=O)OC[C@@H]2COCCN2)cn2ncnc(Nc3ccc4c(cnn4Cc4cccc(F)c4)c3)c12 | % | 84.1 |
| COc1ccc2nc3c(c(N)c2c1)CCCC3 [7-methoxytacrine] | % | 95.4 |
| COc1cc2c(cc1-c1c(C)noc1C)ncc1[nH]c(=O)n([C@H](C)c3ccccn3)c12 [I-BET151] | % | 40.5 |
| CC(C)[N+](C)(CCC(C(N)=O)(c1ccccc1)c1ccccc1)C(C)C [isopropamide-iodide] | % | 99.4 |

In the following, a different compound is considered.
Lab note: measured cell viability of O=C(O)Cc1ccc(OCc2ccccc2)c(Cl)c1 [benzofenac] was 99.6

###

tested on: U2OS; assay: cell viability relative to DMSO; higher = less toxic; conditions: 72 h; 100 nM
compounds and their reported cell viability
Reply numerically in %, unit not repeated.

Use these answered entries as a reference point.
| COMPOUND | cell viability [%] |
| --- | --- |
| O=C(NCc1ccc(Oc2ccccc2)cc1)c1nc(-c2cc(Br)c(O)c(Br)c2)no1 | 96.4 |
| CC(=O)NCCc1c(Cc2ccccc2)[nH]c2ccccc12 | 100 |
| O=C(O)c1ccccc1C(=O)Nc1ccc(-c2ccccc2)cc1 | 100 |
| CCc1c(C(=O)NCCc2ccc(N3CCCCC3)cc2)[nH]c2ccc(Cl)cc12 | 98.8 |
| O=c1ccc2cc(O[C@@H]3O[C@H](CO)[C@@H](O)[C@H](O)[C@H]3O)c(O)cc2o1 | 96.8 |
| CC(=O)N1CCC(C(=O)N(CCCN2CCC(Cc3ccc(C(N)=O)cc3)CC2)c2ccc(C)c(Cl)c2)CC1 | 99.4 |

Lab note: measured cell viability of `CO[C@@H]1[C@@H](O[C@@H]2O[C@H](C)[C@@H](O[C@H]3C[C@@](C)(O)[C@@H](OC(=O)CC(C)C)[C@H](C)O3)[C@H](N(C)C)[C@H]2O)[C@@H](CC=O)C[C@@H](C)[C@@H](O)/C=C/C=C/C[C@@H](C)OC(=O)C[C@H]1OC(C)=O` was 97.5

Lab note: measured cell viability of `Nc1nccc(Oc2ccc(NC(=O)c3cn(COP(=O)(O)O)cc(-c4ccc(F)cc4)c3=O)cc2F)c1Cl` was 98.7

Lab note: measured cell viability of `Cc1cc([N+](=O)[O-])ccc1NS(=O)(=O)c1cc(Cl)ccc1Cl` was 93.3

###

system: Caco-2; assay: relative viability EC50 (midpoint between 100% and the lowest measured viability); higher = less toxic; details: 72 h
compounds and their reported relative viability EC50

Use these answered entries as a reference point.
| COMPOUND | RESULT |
| --- | --- |
| C/C1=C/C[C@@H](/C(C)=C/c2csc(C)n2)OC(=O)C[C@H](O)C(C)(C)C(=O)[C@H](C)[C@@H](O)[C@@H](C)CCC1 | 0.0202 µM |
| Oc1ccc(Nc2nc(-c3ccc(Cl)cc3)cs2)cc1 | > 10 µM |
| O=C(O)C1CSCN1 (stereo unspecified) | > 10 µM |
| CCOC(=O)O[C@]1(C(=O)OCCl)CC[C@H]2[C@@H]3CCC4=CC(=O)C=C[C@]4(C)[C@H]3[C@@H](O)C[C@@]21C | > 10 µM |
| O=C(O)c1ccc(N[C@@H]2O[C@H](CO)[C@@H](O)[C@H](O)[C@@H]2O)cc1 | > 10 µM |
| O=C(OCCOCCO)c1ccccc1Nc1cccc(C(F)(F)F)c1 [etofenamate] | > 10 µM |

Lab note: measured relative viability EC50 of `O=C(O)C1(C(=O)O)CCC1.[NH2-].[NH2-].[Pt+2]` was > 10 µM

Lab note: measured relative viability EC50 of `CC1CCN(CC[C@H]2CCCN2S(=O)(=O)c2cccc(O)c2)CC1` was > 10 µM

###

test system: Calu-3; test: cell viability relative to DMSO; higher = less toxic; conditions: 72 h; 1000 nM
VALUE_KIND: cell viability (%)
Reply numerically in %, unit not repeated.

Use these answered entries as a reference point.
| COMPOUND | ASSAY_TARGET | READOUT_NUMBER |
| --- | --- | --- |
| O=C1N=C2SCCN2C(=O)C1Cc1ccc(Cl)cc1 (stereo not drawn) | Calu-3 | 99.9 |
| OC(CNCC(O)C1CCc2cc(F)ccc2O1)C1CCc2cc(F)ccc2O1 (stereo not drawn) | Calu-3 | 105 |
| O=S(=O)(NCCNC/C=C/c1ccc(Br)cc1)c1cccc2cnccc12 | Calu-3 | 103 |
| COC(=O)c1cnn(-c2ccc(F)cc2F)c1/C=N/NC(=S)NC(C)(C)C | Calu-3 | 89.1 |
| CNC(=O)Oc1ccccc1OC(C)C | Calu-3 | 94.4 |
| CC(C)c1c2cc(-c3ccnc(N[C@H]4CC[C@H](NC5CCOCC5)CC4)n3)ccc2nn1C | Calu-3 | 60.3 |
| CCc1cccc2c3c([nH]c12)C(CC)(CC(=O)O)OCC3 (stereo not drawn) | Calu-3 | 91.9 |

In the following, a different compound is considered.
Measured on Calu-3, `CO[C@@H]1[C@@H](O[C@@H]2O[C@H](C)[C@@H](O[C@H]3C[C@@](C)(O)[C@@H](OC(=O)CC(C)C)[C@H](C)O3)[C@H](N(C)C)[C@H]2O)[C@@H](CC=O)C[C@@H](C)[C@@H](O)/C=C/C=C/C[C@@H](C)OC(=O)C[C@H]1OC(C)=O` has a documented cell viability of 98.2

Measured values drawn from the supplement of paper PMC13380429 for this set.
